Test system: PPARg:RXRa 30nM:10nM, anti-RXR (NR concentration 30 nM, RXRa partner concentration 10 nM)
measurement.notes: PBM binding z-score (relative to random genomic background probes); higher = stronger binding; sequences stand for … in GC…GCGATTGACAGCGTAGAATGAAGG
Let's look at some sequences and their measured PBM binding z-score.
recorded.endpoint: PBM binding z-score

> print(dat)
                        sequence.data  test.value
1  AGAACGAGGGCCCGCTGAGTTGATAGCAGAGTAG      -0.848
2  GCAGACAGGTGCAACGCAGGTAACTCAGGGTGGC      -0.761
3  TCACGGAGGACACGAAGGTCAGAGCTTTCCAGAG        2.16
4  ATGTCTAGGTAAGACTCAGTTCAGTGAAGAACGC      -0.029
5  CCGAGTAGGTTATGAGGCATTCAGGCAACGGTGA       0.331

====

Test system: RARg:RXRa (NR concentration 270 nM, RXRa partner concentration 90 nM)
measurement.notes: PBM binding z-score (relative to random genomic background probes); higher = stronger binding; sequences stand for … in GC…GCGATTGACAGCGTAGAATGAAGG
Think of 0.9 as a floor: if PBM binding z-score stands on it or above, it is rule met; beneath it, rule not met.

> print(dat)
                         sequence.data  answer.label
 1  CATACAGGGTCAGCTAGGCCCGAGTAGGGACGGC      rule met
 2  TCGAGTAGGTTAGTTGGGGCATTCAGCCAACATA  rule not met
 3  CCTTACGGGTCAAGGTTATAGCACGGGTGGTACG      rule met
 4  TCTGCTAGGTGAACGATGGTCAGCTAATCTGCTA  rule not met
 5  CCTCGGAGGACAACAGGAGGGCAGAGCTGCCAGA      rule met
 6  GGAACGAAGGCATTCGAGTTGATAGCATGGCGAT  rule not met
 7  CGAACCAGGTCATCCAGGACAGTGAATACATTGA      rule met
 8  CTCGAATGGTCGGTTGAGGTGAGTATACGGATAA  rule not met
 9  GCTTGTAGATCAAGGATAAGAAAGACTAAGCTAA  rule not met
10  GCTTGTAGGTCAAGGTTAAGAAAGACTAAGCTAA      rule met
11  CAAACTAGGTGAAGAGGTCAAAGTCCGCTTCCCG      rule met
12  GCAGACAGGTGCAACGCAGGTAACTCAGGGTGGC  rule not met
13  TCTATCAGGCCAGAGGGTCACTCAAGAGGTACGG      rule met

====

Tested on: RXRa homodimer (NR concentration 180 nM)
measurement.notes: PBM binding z-score (relative to random genomic background probes); higher = stronger binding; sequences stand for … in GC…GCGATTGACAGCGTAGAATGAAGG
recorded.endpoint: PBM binding z-score

> print(dat)
                         sequence.data                       experimental.system  test.value
 1  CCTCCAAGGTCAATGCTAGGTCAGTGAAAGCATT  RXRa homodimer (NR concentration 180 nM)        4.78
 2  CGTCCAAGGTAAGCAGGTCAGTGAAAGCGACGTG  RXRa homodimer (NR concentration 180 nM)       0.485
 3  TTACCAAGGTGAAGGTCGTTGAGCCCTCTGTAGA  RXRa homodimer (NR concentration 180 nM)        1.59
 4  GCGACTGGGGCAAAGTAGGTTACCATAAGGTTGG  RXRa homodimer (NR concentration 180 nM)       0.504
 5  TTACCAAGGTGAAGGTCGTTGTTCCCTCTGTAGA  RXRa homodimer (NR concentration 180 nM)        1.49
 6  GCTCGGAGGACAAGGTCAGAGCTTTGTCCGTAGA  RXRa homodimer (NR concentration 180 nM)        2.33
 7  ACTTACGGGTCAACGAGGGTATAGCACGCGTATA  RXRa homodimer (NR concentration 180 nM)        5.63
 8  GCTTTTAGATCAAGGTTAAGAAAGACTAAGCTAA  RXRa homodimer (NR concentration 180 nM)       0.844
 9  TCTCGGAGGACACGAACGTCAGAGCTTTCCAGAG  RXRa homodimer (NR concentration 180 nM)       0.094
10  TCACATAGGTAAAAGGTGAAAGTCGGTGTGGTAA  RXRa homodimer (NR concentration 180 nM)         3.3
11  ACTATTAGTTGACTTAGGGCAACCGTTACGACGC  RXRa homodimer (NR concentration 180 nM)       0.622
12  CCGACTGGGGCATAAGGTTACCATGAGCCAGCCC  RXRa homodimer (NR concentration 180 nM)        1.32
